Where do the numbers come from? From patent US10329289B2.

test-target: UniProt P08173
Sequence (P08173 1-479): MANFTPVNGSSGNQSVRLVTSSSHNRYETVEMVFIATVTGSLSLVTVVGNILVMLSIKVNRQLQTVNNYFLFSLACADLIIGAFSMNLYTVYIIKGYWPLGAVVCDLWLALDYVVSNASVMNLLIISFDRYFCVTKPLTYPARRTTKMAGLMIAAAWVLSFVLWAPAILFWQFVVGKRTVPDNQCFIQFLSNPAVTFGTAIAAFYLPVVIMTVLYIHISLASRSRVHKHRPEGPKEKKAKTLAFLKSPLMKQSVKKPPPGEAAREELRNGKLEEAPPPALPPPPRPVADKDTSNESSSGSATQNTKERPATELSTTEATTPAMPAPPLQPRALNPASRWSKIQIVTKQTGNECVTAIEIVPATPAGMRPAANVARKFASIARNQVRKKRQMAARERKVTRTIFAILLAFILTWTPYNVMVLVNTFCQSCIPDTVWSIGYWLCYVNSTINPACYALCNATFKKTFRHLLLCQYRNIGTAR
procedure-details: human FLIPR-based M4 PAM assay (Ca2+ mobilization, CHO-K1 cells with human M4 receptor and Gαqi5)
applied-conditions: acetylcholine at 20% of maximum response, read-out: M4 PAM IP
pEC50: −log10 of the molar value.
Everything with pEC50 lower than 7 is n; everything else, including exactly 7, is y.

A selection of reference data follows.
CCOc1ccc(OC2CCN(c3nc4c(cc3C)C(=O)NC4)CC2)cn1 [Example 34]    y
Cc1cc(OC2CCN(c3nc4c(cc3C)C(=O)NC4)CC2)ccc1F [Example 108]    y
Cc1cc2c(nc1N1CCC(Oc3ccc4[nH]nc(C#N)c4c3)CC1)CNC2=O [Example 316]    n
CCn1cc(OC2CCN(c3nc4c(cc3C)C(=O)NC4)CC2)cn1 [Example 169A]    n
Cc1cc2c(nc1N1CCC(Oc3ccc4[nH]ncc4c3Cl)CC1)CNC2=O [Example 314]    n

Evaluate Cc1cc2c(nc1N1CCC(Oc3ccc4c(c3)COC4(C)C)CC1)CNC2=O [Example 126] : pEC50 at minimum 7?
n

Ok, now Cc1cc2c(nc1N1CCC(Oc3ccc4cccnc4c3)CC1)CNC2=O [Example 92]
n

Ok, now CCc1c(C)c(N2CCC(Oc3ccc(OC)nc3)CC2)nc2c1C(=O)NC2 [Example 229A]
n

Ok, now Cc1cc2c(nc1N1CCC(OCc3cccnc3)CC1)CNC2=O [Example 161]
n

Ok, now Cc1cc2c(nc1N1CCC(Oc3ccc(O)nc3)CC1)CNC2=O [Example 326]
n

Ok, now Cc1cc2c(nc1N1CC[C@@H](Oc3ccc4c(cnn4C)c3)[C@@H](F)C1)CN(C)C2=O [Example 31]
y

Ok, now Cc1cc2c(nc1N1CCC(OC3CCOC3)CC1)CNC2=O (stereo not drawn) [Example 41]
n

Ok, now Cc1cc2c(nc1N1CCC(Oc3ccc(F)cc3)CC1)CNC2=O [Example 72]
y
